Origin of values: paper PMC13494018

- Test system: VTCN1, Q7Z7D3
- Sequence (Q7Z7D3 whole entry): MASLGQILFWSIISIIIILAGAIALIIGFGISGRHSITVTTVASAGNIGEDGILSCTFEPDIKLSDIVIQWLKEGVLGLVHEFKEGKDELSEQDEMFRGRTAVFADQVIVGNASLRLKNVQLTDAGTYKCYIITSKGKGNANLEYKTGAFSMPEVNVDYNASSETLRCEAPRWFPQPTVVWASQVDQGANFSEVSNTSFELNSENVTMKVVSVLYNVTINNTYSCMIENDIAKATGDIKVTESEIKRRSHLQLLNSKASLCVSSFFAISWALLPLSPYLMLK
Value kind: binding in a display sort

Recorded binding in a display sort, per entry:
[[record]]
binder = "design_597_f3dcd2b3-c7aa-4b15-88bc-bbb8d01a18cd_1020_dldesign_0_cycle1_af2pred (protein) GHSEEGKEISEKIREISRIAKEAGKEIKKYPGGEELMKELGETRDKAIDEAAEGGLEEAKKALEKVKKAAKELLKKAKA"
value_kind = "binding in a display sort"
reported_value = "not found (inactive)"

[[record]]
binder = "design_602_0a1f3d3d-7d26-454b-9b34-ebe8ef9bc7d4_1819_dldesign_0_cycle1_af2pred (protein) GSAIMDAQAKAVEIRTEAEKLAKEYKDLPTAKDFKKAAEIAREALKNGEEAIELSKKAEELLEKAKKKLKEELEKK"
value_kind = "binding in a display sort"
reported_value = "not found (inactive)"

[[record]]
binder = "design_604_3e0b3014-b333-46f1-8adc-d7f0bf8048fa_596_dldesign_0_cycle1_af2pred (protein) DAKKEIQELTDEAIKKIEEYAKKAKDPKNYEKAIKEAVDTVHEAQQKLAEIGKKYGPEAEKYAKEQRKKVIDAGKKYIEEAKKAQA"
value_kind = "binding in a display sort"
reported_value = "not found (inactive)"

[[record]]
binder = "design_598_15ab41e9-cad4-4381-8935-81f74b313fe8_1263_dldesign_0_cycle1_af2pred (protein) GMEEIEKRNEEVKKKAEELKKQVEKAEKLAEKGDPEGKKLAEETKKKAIELAKSNPEAEPEVKTEITEIAVEAQGIEHLMKIK"
value_kind = "binding in a display sort"
reported_value = "not found (inactive)"

[[record]]
binder = "design_609_7ee6ce64-4629-41e8-bcb4-ba0da017284d_1016_dldesign_0_cycle1_af2pred (protein) AAADAKAKFDVAFLAAELRASARAAAKANPAAAPAVVDAAAERLRAAGAAGTPEAAAYADAAIARERAWAAAAAAA"
value_kind = "binding in a display sort"
reported_value = "not found (inactive)"


get_value(item= design_606_b60ff77f-1541-4e5f-8260-46d5e5f6b85e_898_dldesign_0_cycle1_af2pred (protein) MNITEKVAAAAQAALAALADPATAVAALSAARFTALDLVSEDIEAGEVAIEIFEKGDAGSRRVARIIRSHVEALKRN , readout=binding in a display sort) returns not found (inactive)

get_value(item= design_603_0b98da89-d791-4423-9b2d-fd1b7292da18_2081_dldesign_0_cycle1_af2pred (protein) AEEAEKKVKELAKKAEEAFRRAREAGAKAVEKDPSVAKRASELVHQAAQYRAEAKAAKDPEEAKEALKKAEKAREELEKLAKA , readout=binding in a display sort) returns not found (inactive)
